Entry source: PubChem BioAssay AID1963967

Quick reference: viability, T/C of the listed items.
System: 855422-203-R-J1-PDC spheroids with HUVEC/MSC, viability
Test method notes: Anticancer human tumor 855422-203-R-J1-PDC patient-derived bladder carcinoma cell line growth inhibition [PI3K]
Condition label: second compound 1 µM; first compound 0.949 µM; hits give low values

[
  {
    "Compound": "Cn1cnc2c(F)c(Nc3ccc(Br)cc3Cl)c(C(=O)NOCCO)cc21 + COc1c(OCCCN2CCOCC2)ccc2c3n(c(=NC(=O)c4cnc(N)nc4)nc12)CCN3",
    "Unit name": "%",
    "viability, T/C": 0.38
  },
  {
    "Compound": "Cn1cnc2c(F)c(Nc3ccc(Br)cc3Cl)c(C(=O)NOCCO)cc21 + Cc1nc(NC(=O)N2CCCC2C(N)=O)sc1-c1ccnc(C(C)(C)C(F)(F)F)c1",
    "Unit name": "%",
    "viability, T/C": 36.2
  },
  {
    "Compound": "Cn1cnc2c(F)c(Nc3ccc(Br)cc3Cl)c(C(=O)NOCCO)cc21 + CC(Nc1ccc2c(c1)OCCn1cc(N3C(=O)OCC3C(F)F)nc1-2)C(N)=O",
    "Unit name": "%",
    "viability, T/C": 16.1
  },
  {
    "Compound": "Cn1cnc2c(F)c(Nc3ccc(Br)cc3Cl)c(C(=O)NOCCO)cc21 + CC(Nc1ncnc2nc[nH]c12)c1cc2cccc(Cl)c2c(=O)n1-c1ccccc1",
    "Unit name": "%",
    "viability, T/C": 79
  }
]

###

Entries and their measured viability, T/C follow.
System: 855422-203-R-J1-PDC spheroids with HUVEC/MSC, viability
Test method notes: Anticancer human tumor 855422-203-R-J1-PDC cell line growth inhibition [PI3K];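 note: agents incubated with spheroids for one week before read-out; 100% = DMSO vehicle-treated control wells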
Condition label: second compound 0.00316 µM; first compound 0.00316 µM; hits give low values

[
  {
    "Molecule": "Cn1ncnc1[C@H]1c2n[nH]c(=O)c3cc(F)cc(c23)N[C@@H]1c1ccc(F)cc1 + COc1c(OCCCN2CCOCC2)ccc2c3n(c(=NC(=O)c4cnc(N)nc4)nc12)CCN3",
    "Unit name": "%",
    "viability, T/C": 98.6
  },
  {
    "Molecule": "CC(=O)c1c(C)c2cnc(Nc3ccc(N4CCNCC4)cn3)nc2n(C2CCCC2)c1=O + CC(Nc1ccc2c(c1)OCCn1cc(N3C(=O)OCC3C(F)F)nc1-2)C(N)=O",
    "Unit name": "%",
    "viability, T/C": 109
  },
  {
    "Molecule": "CC(C)n1nc(-c2ccc3oc(N)nc3c2)c2c(N)ncnc21 + CC(Nc1ccc2c(c1)OCCn1cc(N3C(=O)OCC3C(F)F)nc1-2)C(N)=O",
    "Unit name": "%",
    "viability, T/C": 108
  },
  {
    "Molecule": "CCN1CCN(Cc2ccc(Nc3ncc(F)c(-c4cc(F)c5nc(C)n(C(C)C)c5c4)n3)nc2)CC1 + CC(Nc1ccc2c(c1)OCCn1cc(N3C(=O)OCC3C(F)F)nc1-2)C(N)=O",
    "Unit name": "%",
    "viability, T/C": 111
  },
  {
    "Molecule": "CC(=O)c1c(C)c2cnc(Nc3ccc(N4CCNCC4)cn3)nc2n(C2CCCC2)c1=O + COc1c(OCCCN2CCOCC2)ccc2c3n(c(=NC(=O)c4cnc(N)nc4)nc12)CCN3",
    "Unit name": "%",
    "viability, T/C": 95.2
  }
]

###

Tested on: 855422-203-R-J1-PDC spheroids with HUVEC/MSC, viability
Test method notes: Anticancer human tumor 855422-203-R-J1-PDC cell line growth inhibition [PI3K];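 note: agents incubated with spheroids for one week before read-out; 100% = DMSO vehicle-treated control wells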
Condition label: second compound 1 µM; first compound 0.1 µM; hits give low values
Quantity kind: viability, T/C

[
  {
    "Molecule": "C[C@@H](NC(=O)c1ncnc(N)c1Cl)c1ncc(C(=O)Nc2cc(C(F)(F)F)c(Cl)cn2)s1 + CC(Nc1ncnc2nc[nH]c12)c1cc2cccc(Cl)c2c(=O)n1-c1ccccc1",
    "Observed result": "102%"
  },
  {
    "Molecule": "Cn1ncc(Cl)c1-c1cc(C(=O)NC(CN)Cc2cccc(F)c2)sc1Cl (stereo not given) + CC(Nc1ccc2c(c1)OCCn1cc(N3C(=O)OCC3C(F)F)nc1-2)C(N)=O",
    "Observed result": "29%"
  },
  {
    "Molecule": "CC1(C)CCC(CN2CCN(c3ccc(C(=O)NS(=O)(=O)c4ccc(NCC5CCOCC5)c([N+](=O)[O-])c4)c(Oc4cnc5[nH]ccc5c4)c3)CC2)=C(c2ccc(Cl)cc2)C1 + CC(Nc1ncnc2nc[nH]c12)c1cc2cccc(Cl)c2c(=O)n1-c1ccccc1",
    "Observed result": "106%"
  },
  {
    "Molecule": "C=CC(=O)N1CCN(c2nc(=O)n(-c3c(C)ccnc3C(C)C)c3nc(-c4c(O)cccc4F)c(F)cc23)C(C)C1 (stereo not given) + CC(Nc1ncnc2nc[nH]c12)c1cc2cccc(Cl)c2c(=O)n1-c1ccccc1",
    "Observed result": "98.7%"
  },
  {
    "Molecule": "CC(Cn1ccc(-c2ccc(C#N)c(Cl)c2)n1)NC(=O)c1cc(C(C)O)[nH]n1 (stereo not given) + CC(Nc1ccc2c(c1)OCCn1cc(N3C(=O)OCC3C(F)F)nc1-2)C(N)=O",
    "Observed result": "40.9%"
  }
]

###

Test system: 855422-203-R-J1-PDC spheroids with HUVEC/MSC, viability
Test method notes: Anticancer human tumor 855422-203-R-J1-PDC cell line growth inhibition [PI3K];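 note: agents incubated with spheroids for one week before read-out; 100% = DMSO vehicle-treated control wells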
Condition label: compound 3.16 µM; hits give low values
Quantity kind: viability, T/C

[
  {
    "Molecule": "Cc1nc(NC(=O)N2CCCC2C(N)=O)sc1-c1ccnc(C(C)(C)C(F)(F)F)c1 (configuration not stated)",
    "Quantity kind": "viability, T/C",
    "Observed result": "43% [middle of 8 runs]"
  },
  {
    "Molecule": "CC(Nc1ncnc2nc[nH]c12)c1cc2cccc(Cl)c2c(=O)n1-c1ccccc1 (configuration not stated)",
    "Quantity kind": "viability, T/C",
    "Observed result": "98.8% [middle of 8 runs]"
  },
  {
    "Molecule": "C=CC(=O)N1CCN(c2nc(=O)n(-c3c(C)ccnc3C(C)C)c3nc(-c4c(O)cccc4F)c(F)cc23)C(C)C1 (configuration not stated)",
    "Quantity kind": "viability, T/C",
    "Observed result": "122% [middle of 4 runs]"
  },
  {
    "Molecule": "C[C@@H](NC(=O)c1ncnc(N)c1Cl)c1ncc(C(=O)Nc2cc(C(F)(F)F)c(Cl)cn2)s1",
    "Quantity kind": "viability, T/C",
    "Observed result": "122% [middle of 4 runs]"
  },
  {
    "Molecule": "CC1(C)CCC(Nc2ncc(C(F)(F)F)c(-c3c[nH]c4c(P(C)(C)=O)c(C#N)ccc34)n2)CN1 (configuration not stated)",
    "Quantity kind": "viability, T/C",
    "Observed result": "28.9% [middle of 4 runs]"
  },
  {
    "Molecule": "CCCS(=O)(=O)Nc1ccc(F)c(C(=O)c2c[nH]c3ncc(-c4ccc(Cl)cc4)cc23)c1F",
    "Quantity kind": "viability, T/C",
    "Observed result": "65.7% [middle of 4 runs]"
  },
  {
    "Molecule": "CC(Cn1ccc(-c2ccc(C#N)c(Cl)c2)n1)NC(=O)c1cc(C(C)O)[nH]n1 (configuration not stated)",
    "Quantity kind": "viability, T/C",
    "Observed result": "97.2% [middle of 4 runs]"
  },
  {
    "Molecule": "C#Cc1c(F)ccc2cc(O)cc(-c3ncc4c(N5CC6CCC(C5)N6)nc(OCC56CCCN5CC(F)C6)nc4c3F)c12 (configuration not stated)",
    "Quantity kind": "viability, T/C",
    "Observed result": "109% [middle of 4 runs]"
  },
  {
    "Molecule": "CNC(=O)c1ccc(N2C(=S)N(c3ccc(C#N)c(C(F)(F)F)c3)C(=O)C2(C)C)cc1F",
    "Quantity kind": "viability, T/C",
    "Observed result": "79.4% [middle of 4 runs]"
  },
  {
    "Molecule": "CC(C)NCC(C(=O)N1CCN(c2ncnc3c2C(C)CC3O)CC1)c1ccc(Cl)cc1 (configuration not stated)",
    "Quantity kind": "viability, T/C",
    "Observed result": "36.8% [middle of 4 runs]"
  },
  {
    "Molecule": "Cn1nccc1Nc1nccc(-c2ccn(C(CO)c3ccc(Cl)c(F)c3)c(=O)c2)n1 (configuration not stated)",
    "Quantity kind": "viability, T/C",
    "Observed result": "93.1% [middle of 4 runs]"
  },
  {
    "Molecule": "Cn1ncc(Cl)c1-c1cc(C(=O)NC(CN)Cc2cccc(F)c2)sc1Cl (configuration not stated)",
    "Quantity kind": "viability, T/C",
    "Observed result": "28.2% [middle of 4 runs]"
  }
]
